Each entry below carries its recorded Average Cell Viability after 24 Hours (% DMSO).
# Tested on: viable cells in culture
# ASSAY: Cell viability assay (CellTiter-Glo Luminescent Cell Viability Assay, ATP quantitation, percent of vehicle control)
Numeric answer plus unit only.

CCOC(=O)c1ccc(N2C(=O)c3[nH]nc(-c4ccco4)c3C2c2ccc(O)cc2)cc1 (stereo not drawn)
64.75 % DMSO
CC1=C(C(=O)OC2CCCC2)C(c2ccc(Br)cc2)C2=C(CC(C)(C)CC2=O)N1 (stereo not drawn)
95.77 % DMSO
O=C(Nc1nccs1)c1sc2ccccc2c1Cl
73.91 % DMSO
O=c1cnnc(N/N=C/c2ccccn2)[nH]1
65.50 % DMSO
CNC(=O)C1CCN(Cc2ccc(F)cc2)CC1
111.88 % DMSO
Cc1cccn2c(=O)cc(COc3ccc(NC(=O)c4cccs4)cc3)nc12
97.09 % DMSO
CCOC(=O)c1ccc(NC(=O)CSc2nnc(-c3ccc(OC)cc3)o2)cc1
92.98 % DMSO
Cc1ccc(S(=O)(=O)Nc2cc(Cl)c(O)c3ncccc23)cc1
66.43 % DMSO

Average Cell Viability after 24 Hours (% DMSO) for CC1=C(C(=O)OC2CCCCCC2)C(c2ccc([N+](=O)[O-])cc2)C2=C(CC(C)(C)CC2=O)N1 (stereo not drawn) ?
83.08 % DMSO

State the recorded Average Cell Viability after 24 Hours (% DMSO) for this entry: COc1cc([N+](=O)[O-])cc2cc(C(=O)NCCCN3CCOCC3)c(=O)oc12
92.83 % DMSO
